All values here come from the DeepSol protein solubility set.

assay: soluble on expression in E. coli; label from the status in PepcDB or PDB records
quantity_kind: soluble on expression in E. coli

GKENDAGDIVEKFDPTEAQSVEVQDERPETTIGRGKPTDEVVLLSEAHRPEEKMAAYEDEHGTYIMNSKDLRAVQHVERLTKMGVHSLKIEGRTKSFYYCARTAQVYRKAIDDAVAGKPFDESLMGTLESLAHRGYTEGFLRRHTHDTYQNYDYGYSVSDAQQFVGEFTGKRRGDMAEVEVKNKFVVGDSLELMTPKGNVVFTLEAMENRKSESIEDAKGNGHFVFIPVPEDMDLEYGLLMRNLNAGQDTRNPTGK	not soluble
MNEPSACSGPPVKSKSSKNEPFYTLKALLPPYSEIQGNHDLLMSYELGPVEGGFSGSRRVKEKISSFLPHIIGEFHLDATKEASSLRALIEKPPIHKEISNLTSSSMQGFKLSAGPVDERYRHLFERRKEEPNLAYSEKLNLIRVRQQYDAYGFDDDETEKGFPKKHKKKKKDKKRKKEKEELGDAEKRKRAADEPMEF	not soluble
